# STUDY TARGET: human LPA1 (Homo sapiens, UniProt Q92633)
# Sequence (Q92633 whole entry): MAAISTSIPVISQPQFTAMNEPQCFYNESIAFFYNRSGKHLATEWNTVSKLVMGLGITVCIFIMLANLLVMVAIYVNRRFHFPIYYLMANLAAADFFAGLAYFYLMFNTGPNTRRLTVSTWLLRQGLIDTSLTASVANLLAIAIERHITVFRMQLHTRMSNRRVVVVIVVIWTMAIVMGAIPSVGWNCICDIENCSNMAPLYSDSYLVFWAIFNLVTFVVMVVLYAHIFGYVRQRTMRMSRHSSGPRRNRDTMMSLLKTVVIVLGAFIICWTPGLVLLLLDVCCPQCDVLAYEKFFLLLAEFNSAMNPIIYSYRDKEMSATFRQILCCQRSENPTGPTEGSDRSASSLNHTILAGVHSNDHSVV
# MEASUREMENT NOTES: LPA1 functional antagonist assay (LPA-induced calcium flux)
# CONDITION NOTES: CHO cells overexpressing human LPA1; inhibition of calcium flux induced by 10 nM LPA; read-out: hLPA1 IC50
ASSAY METRIC: IC50 (nM)
Respond numerically; units are nM and should not be typed.

Field request: IC50 | item: CCCN(C)C(=O)OCc1c(-c2ccc(O[C@@H]3CC[C@@H](C(=O)O)C3)c(C)n2)nnn1C (racemic)
2040

Need IC50 of Cc1nc(-c2nnn(C)c2COC(=O)N(C)CC2CCC2)ccc1O[C@H]1CC[C@@H](CC(=O)O)C1 (racemic) , thanks.
40

# query: IC50 of entry Cc1noc(-c2ccc(OC3CCC(C(=O)O)C3)cn2)c1CNc1nccc(-c2ccccc2)n1 (single isomer, unassigned) [Example 45]
17

Dear colleague, I am looking for the recorded IC50 of the following molecule: CCC1(N(C)C(=O)OCc2c(-c3ccc(O[C@H]4CC[C@H](CC(=O)O)C4)c(C)n3)nnn2C)CC1 (racemic)
479

# get_value(readout='IC50', item= Cc1nc(-c2nnn(C)c2COC(=O)N(C)CC2CCC2)ccc1O[C@H]1CC[C@H](CC(=O)O)C1 (single isomer, unassigned) [Example 6] )
11

Looking for the measured IC50 of Cc1nc(-c2cnn(C)c2COC(=O)N(C)CC2CCC2)cnc1O[C@H]1CC[C@H](C(=O)O)C1 (racemic) [Example 16] , can you help?
202

Which measured IC50 value corresponds to CCCN(C)C(=O)OCc1c(-c2ccc(O[C@H]3CCC[C@H]3CC(=O)O)c(C)n2)nnn1C (racemic) ?
425

# IC50 lookup, item Cc1nc(-c2nnn(C)c2COC(=O)N2CC3(CCC3)C2)ccc1O[C@H]1CC[C@H](CC(=O)O)C1 (racemic)
452

Entry under review: Cc1nc(-c2nnn(C)c2COC(=O)N(C)CC2CCC2)ccc1OC[C@@H]1CC[C@H](C(=O)O)C1 (single isomer, unassigned) [Example 31] . Reported IC50?
10.8

IC50 lookup needed for Cc1noc(-c2ccc(O[C@H]3CC[C@@H](C(=O)O)C3)cc2)c1COC(=O)N(C)CCC(C)C (racemic) , thanks.
1180

Field request: IC50 | item: Cc1nc(-c2onc(C)c2COC(=O)N(C)C2CCCC2)ccc1O[C@H]1CC[C@@H](CC(=O)O)C1 (racemic)
25

Value lookup for IC50; key = Cc1noc(-c2ccc(OC3CCC(C(=O)O)C3)cn2)c1CNc1nccc(-c2ccccc2)n1 (single isomer, unassigned) [Example 44]
158

Which IC50 is reported for this molecule? CCCCN(C)C(=O)OCc1c(-c2ccc(O[C@H]3CC[C@H](CC(=O)O)C3)c(C)n2)nnn1C (single isomer, unassigned) [Example 4]
15

* * *

# STUDY TARGET: UniProt:Q92633
# MEASUREMENT NOTES: LPA1 functional antagonist assay (LPA-induced calcium flux)
# CONDITION NOTES: CHO cells overexpressing human LPA1; inhibition of calcium flux induced by 10 nM LPA; read-out: hLPA1 IC50
ASSAY METRIC: pIC50
Notebook: values listed as pIC50 are -log10 of the concentration (mol/L).

Fill blank: measured pIC50 of the compound Cc1nc(-c2onc(C)c2COC(=O)N(C)C2CCCC2)ccc1O[C@H]1CC[C@H](C(=O)O)C1 (racemic) [Example 77] is ____.
7.18

Give its pIC50 value. Item: CCc1nc(-c2nnn(C)c2COC(=O)N(C)CC2CCC2)ccc1O[C@@H]1CC[C@@H](CC(=O)O)C1 (racemic) [Example 87]
7.34

Consider the compound Cc1noc(-c2ccc(O[C@@H]3CC[C@@H](C(=O)O)C3)cn2)c1CNc1nccc(-c2ccccn2)n1 (relative stereo) [Example 34] and give its measured pIC50.
6.61

Any idea what its pIC50 is? The compound is Cc1nc(-c2nnn(C)c2CNC(=O)OCc2ccccc2)ccc1O[C@@H]1CC[C@@H](C(=O)O)C1 (single isomer, unassigned) [Example 21]
7.25

Any idea what pIC50 was measured for Cc1noc(-c2ccc(O[C@@H]3CC[C@@H](C(=O)O)C3)cc2)c1COC(=O)N(C)C1CCCC1 (racemic) [Example 3] ?
6.77

pIC50 for Cc1nc(-c2onc(C)c2COC(=O)N(C)C2CCCC2)ccc1O[C@H]1CC[C@H](C(C)C(=O)O)C1 (mixture of isomers) [Example 51] ?
7.62

Returns the measured pIC50 for the input compound. Input: Cc1nc(-c2nnn(C)c2CNc2nccc(C(C)C)n2)ccc1OC[C@@H]1CC[C@H](C(=O)O)C1 (relative stereo) [Example 39]
6.79

Quick check: pIC50 of Cc1nc(-c2nnn(C)c2COC(=O)N(C)CC2CCC2)cnc1O[C@H]1CC[C@H](CC(=O)O)C1 (single isomer, unassigned) [Example 27] ?
6.59

Need pIC50, item Cc1nc(-c2nnn(C)c2COC(=O)N(C)CC2CCC2)cnc1O[C@H]1CC[C@H](CC(=O)O)C1 (single isomer, unassigned) [Example 28]
5.43

If you can, please state the reported pIC50 value of Cn1nnc(-c2ccc(OC[C@@H]3CC[C@H](C(=O)O)C3)cn2)c1CNc1nccc(-c2ccccn2)n1 (relative stereo) [Example 37] .
6.76

Report pIC50 for CCCCN(C)C(=O)OCc1c(-c2nc(C)c(O[C@H]3CC[C@H](CC(=O)O)C3)cc2F)nnn1C (racemic) [Example 68] please.
6.83

Bench note: what pIC50 did Cc1nc(-c2nnn(C)c2COC(=O)N(C)CCCCF)ccc1O[C@H]1CC[C@H](CC(=O)O)C1 (racemic) [Example 64] show?
6.78

Which value of pIC50 has been reported for Cc1nc(-c2onc(C)c2CNc2nccc(-c3ccccn3)n2)ccc1OC[C@@H]1CC[C@H](C(=O)O)C1 (relative stereo) [Example 35] in the records?
8.05

What does the data say about its pIC50? Entry: Cc1nc(-c2nnn(C)c2COC(=O)N(C)CC2CCC2)cnc1O[C@@H]1CC[C@@H](C(=O)O)C1 (racemic) [Example 13]
6.21

// returns reported pIC50 for input Cc1nc(-c2nnn(C)c2CNC(=O)OCc2ccccc2)ccc1O[C@@H]1CC[C@@H](C(=O)O)C1 (racemic) [Example 20]
7.40

Reported pIC50, compound Cc1nc(-c2nnn(C)c2COC(=O)N(C)CC(C)C)ccc1O[C@@H]1CC[C@@H](C(=O)O)C1 (racemic) [Example 24] : ____
5.94

Report pIC50 for Cc1noc(-c2ccc(OC[C@@H]3CC[C@H](C(=O)O)C3)cc2)c1COC(=O)N(C)C1CCCC1 (relative stereo) [Example 41] please.
6.49

Using the record for Cc1nc(-c2nnn(C)c2COC(=O)N(C)CC2CCC2)ccc1O[C@H]1CC[C@H](C2(C(=O)O)CC2)C1 (racemic) [Example 53] , report its pIC50.
7.85

Quick one: pIC50 of Cc1nc(-c2nnn(C)c2COC(=O)N(C)C2(C)CC2)ccc1O[C@H]1CC[C@H](CC(=O)O)C1 (racemic) [Example 57] ?
6.53

Recorded pIC50 for Cc1nc(-c2onc(C)c2COC(=O)N(C)C2CCCC2)ccc1O[C@H]1CC[C@H](C(C)C(=O)O)C1 (mixture of isomers) [Example 50] , please?
7.70

Fill in the blank: the reported pIC50 of Cc1noc(-c2ccc(OC3CCC(C(=O)O)C3)cn2)c1CNc1nccc(-c2ccccc2)n1 (centres unmarked) [Example 42] is ____.
7.59

Report pIC50 for Cc1noc(-c2ccc(OC3CCC(C(=O)O)C3)cn2)c1CNc1nccc(-c2ccccc2)n1 (single isomer, unassigned) [Example 43] please.
7.30

Can you look up the measured pIC50 of Cc1nc(-c2nnn(C)c2COC(=O)N(C)CC2CCC2)ccc1O[C@H]1CC[C@H](C(=O)O)C1 (racemic) [Example 75] for me?
7.37

Need pIC50 of Cc1nc(-c2nnn(C)c2COC(=O)N(C)CC2CCC2)ccc1OC[C@@H]1CC[C@H](C(=O)O)C1 (racemic) [Example 30] , thanks.
7.68

Field request: pIC50 | item: Cc1nc(-c2nnn(C)c2NC(=O)OCC2CC2)ccc1O[C@H]1CC[C@H](CC(=O)O)C1 (racemic) [Example 83]
5.91

// lookup pIC50 for Cc1nc(-c2nnn(C)c2COC(=O)N(C)CC2CCC2)ccc1OC[C@H]1CC[C@@H](C(=O)O)C1 (single isomer, unassigned) [Example 32]
8.01

* * *

Exercise: state measured log10 of IC50 for each of the compounds provided.
# STUDY TARGET: human LPA1 (Homo sapiens, UniProt Q92633)
# MEASUREMENT NOTES: LPA1 functional antagonist assay (LPA-induced calcium flux)
# CONDITION NOTES: CHO cells overexpressing human LPA1; inhibition of calcium flux induced by 10 nM LPA; read-out: hLPA1 IC50
Response schema: value (number) is log10 of IC50 in units of nM.

For the compound CC(C)CCN(C)C(=O)OCc1c(-c2ccc(O[C@H]3CC[C@@H](C(=O)O)C3)cc2)nnn1C (relative stereo) [Example 12] , what log10 of IC50 is on record?
2.65

Consider the compound Cc1nc(-c2cnn(C)c2CNC(=O)OCc2ccccc2)cnc1O[C@H]1CC[C@H](C(=O)O)C1 (single isomer, unassigned) [Example 19] and give its measured log10 of IC50.
2.31

Tell me the measured log10 of IC50 of Cc1nc(-c2nnn(C)c2COC(=O)N(C)C2CCC2)ccc1O[C@H]1CC[C@H](CC(=O)O)C1 (racemic) [Example 63] , please.
1.98

Record request: log10 of IC50 value, item Cc1nc(-c2cnn(C)c2COC(=O)N(C)CC2CCC2)cnc1O[C@H]1CC[C@H](C(=O)O)C1 (single isomer, unassigned) [Example 17]
2.62

Give the measured log10 of IC50 of Cc1noc(-c2ccc(OC3CCC(C(=O)O)C3)cn2)c1CNc1nccc(-c2ccccc2)n1 (single isomer, unassigned) [Example 46] .
1.75

Item Cc1nc(-c2nnn(C)c2COC(=O)N(C)CC2CCC2)ccc1O[C@H]1CC[C@H](C(=O)O)C1 (single isomer, unassigned) [Example 79] has what recorded log10 of IC50?
2.83

Would you kindly share the measured log10 of IC50 for CCCC1(N(C)C(=O)OCc2c(-c3ccc(O[C@@H]4CC[C@@H](CC(=O)O)C4)c(C)n3)nnn2C)CC1 (racemic) [Example 10] ?
2.57

# query: log10 of IC50 of entry CCCCN(C)C(=O)OCc1c(-c2ccc(O[C@H]3CC[C@H](CC(=O)O)C3)c(C)n2)nnn1C (single isomer, unassigned) [Example 5]
2.98

Recorded log10 of IC50 of Cc1nc(-c2nnn(C)c2COC(=O)N2CCC3(CC3)C2)ccc1O[C@H]1CC[C@H](CC(=O)O)C1 (racemic) [Example 67] , please.
2.89

Entry Cc1nc(-c2nnn(C)c2COC(=O)N(C)C2CCCC2)ccc1O[C@H]1CC[C@H](CC(=O)O)C1 (racemic) [Example 56] : reported log10 of IC50 = ?
1.95

Item Cc1nc(-c2nnn(C)c2COC(=O)N(C)Cc2ccccc2)ccc1O[C@@H]1CC[C@@H](C(=O)O)C1 (racemic) [Example 22] has what recorded log10 of IC50?
2.26

State the recorded log10 of IC50 for this entry: Cc1noc(-c2ccc(O[C@H]3CC[C@@H](C(=O)O)C3)cc2)c1COC(=O)N(C)C1CCCC1 (racemic) [Example 71]
2.31

Field request: log10 of IC50 | item: Cc1nc(-c2cnn(C)c2CNC(=O)OCc2ccccc2)cnc1O[C@H]1CC[C@H](C(=O)O)C1 (racemic) [Example 18]
2.57
